system: VDR:RXRa (NR concentration 270 nM, RXRa partner concentration 90 nM); experiment: PBM binding z-score (relative to random genomic background probes); higher = stronger binding; sequences stand for … in GC…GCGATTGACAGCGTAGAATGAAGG
Record condition met whenever PBM binding z-score is at 3 or higher; record condition not met when lower.

// below: answered sequences
ATCGAAAGGTCGTGAGGTGAGTATCCAGAAAGGC: condition met
CCTACTGGGCCACAGGTCATTGATTCCAATGCTC: condition not met
TACCCTAGGTCAGATCGGGCCAGTATACGCTATA: condition not met
TCTTGTAGATCAATAAAGGTTAAGAAAGTGCGCT: condition not met
ATATGTAGGTTATCGGGTCAGTCAGTTTGCGCAT: condition met

PBM binding z-score >= 3 for "TCATATAGGTAAACAGGTGAAATTCCGTAAGTTA" ?
condition not met

PBM binding z-score >= 3 for "GGAACGATGGCAAAGTTGATAGCATCTGTCGACG" ?
condition not met

PBM binding z-score >= 3 for "CCGACTGGGGCATAAGGTTATCATAAGCCAGCCC" ?
condition not met

PBM binding z-score >= 3 for "CGTACTAGGTCATTGACAGGACAGTGAATAGTAA" ?
condition not met

PBM binding z-score >= 3 for "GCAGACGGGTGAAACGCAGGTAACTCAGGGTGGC" ?
condition not met

PBM binding z-score >= 3 for "ACAATTAGTTGAGACGAGGGCAACCGATAGGTTG" ?
condition not met

PBM binding z-score >= 3 for "CCTGCTAGGCCATGGTCAGCTAATCTACAGTATG" ?
condition not met

PBM binding z-score >= 3 for "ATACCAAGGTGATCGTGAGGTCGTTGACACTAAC" ?
condition met

====

tested on: PPARg:RXRa 30nM:10nM, anti-RXR (NR concentration 30 nM, RXRa partner concentration 10 nM); assay: PBM binding z-score (relative to random genomic background probes); higher = stronger binding; sequences stand for … in GC…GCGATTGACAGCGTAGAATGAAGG
Record MET whenever PBM binding z-score is at 2 or higher; record NOT MET when lower.

GGAACGAGGGCATTCGAGTTGATAGCCTGGCGAT: NOT MET

PBM binding z-score >= 2 for "TAGAGTAGGTTACCAATGGGGCATTCAGCTTTCT" ?
NOT MET

PBM binding z-score >= 2 for "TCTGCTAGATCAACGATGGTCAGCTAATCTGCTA" ?
NOT MET

PBM binding z-score >= 2 for "CAGCTTAGGTCAGGGCCAGTATAGGAGGAACGTT" ?
NOT MET

PBM binding z-score >= 2 for "CAAACTAGGTGAAGGTCAAAGTCGGTTTGTGCCA" ?
MET

PBM binding z-score >= 2 for "GCTCGGAGGACAAGATCAGAGCTTTGTCCGTAGA" ?
NOT MET

PBM binding z-score >= 2 for "CCTCGGAGGACAACAGGAGGTCAGAGGTGCCAGA" ?
NOT MET

PBM binding z-score >= 2 for "TCATATAGGTAAAAGGTGAAAGGCGGTGTGGTAA" ?
MET

PBM binding z-score >= 2 for "CCGACTGGGGCAGAAAGATTACCATACCATCCGG" ?
NOT MET

PBM binding z-score >= 2 for "CCTTACCGGTCACGAGGTTATAGCACGACGAGCG" ?
NOT MET

PBM binding z-score >= 2 for "CCTCGGAGGACAACAGGAGGTTAGAGCTGCCAGA" ?
NOT MET

PBM binding z-score >= 2 for "CAAACTAGGTCACCGGTAGGTCAAAGTCCGCATG" ?
MET

PBM binding z-score >= 2 for "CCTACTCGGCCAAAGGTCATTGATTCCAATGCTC" ?
MET

PBM binding z-score >= 2 for "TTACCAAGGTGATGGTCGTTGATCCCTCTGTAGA" ?
NOT MET

PBM binding z-score >= 2 for "ATCGCTAGGTAACCAAGTTCAGTGAATGCCGAAC" ?
NOT MET

PBM binding z-score >= 2 for "CGTCCAGGGTCAGCAGGTCAGTGAAAGCGACGTG" ?
NOT MET

PBM binding z-score >= 2 for "CCTCAAAGTTCAAGGTAACGTAACAGAAAGCAGC" ?
NOT MET

PBM binding z-score >= 2 for "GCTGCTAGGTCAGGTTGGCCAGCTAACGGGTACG" ?
NOT MET

PBM binding z-score >= 2 for "TCGAGTAGGTTAGTCGGGGCATTCGGCCAACATA" ?
NOT MET

PBM binding z-score >= 2 for "CAAACTAGGTCACAGAGGTCAGAGTCCGTGCGTA" ?
MET

====

Catalogue of sequences with associated PBM binding z-score
tested on: FXR:RXRa (NR concentration 270 nM, RXRa partner concentration 90 nM); assay: PBM binding z-score (relative to random genomic background probes); higher = stronger binding; sequences stand for … in GC…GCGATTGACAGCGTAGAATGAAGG
API note: the answer field is a bare number with no unit suffix.

Some sequences with recorded PBM binding z-score:
GCGACTGAGGCAAAGCAGGTTACCATAAGGTTGG: -0.391
ACAGACAGGTGAGTCAAGGTAACTCAGCTGGACG: 1.06
GCTGCTCGGTCAGGTTGGTCAGCTAACGGGTACG: -0.343
CCTAGCAGGCCAATCTGGGTAACTCAAGGCTTGA: -0.2
AATACAGGGTCACTAAGCCAGAGTAGGTACGAAT: 6.17

Could you tell me which PBM binding z-score is on file for "CCTTACGGGTCACTGACAGGTAATAGCATTTGGA" ?
5.68

====

tested on: THRa homodimer (NR concentration 90 nM); assay: PBM binding z-score (relative to random genomic background probes); higher = stronger binding; sequences stand for … in GC…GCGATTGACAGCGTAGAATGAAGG
readoutName: PBM binding z-score
API note: the answer field is a bare number with no unit suffix.

Some sequences with recorded PBM binding z-score:
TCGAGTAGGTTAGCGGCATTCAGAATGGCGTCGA: -0.985
CGAACGAGTGCATGAGTTGATAGCAAATGCCGAT: -0.726
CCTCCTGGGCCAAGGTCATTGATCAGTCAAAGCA: 2.34

Could you tell me which PBM binding z-score is on file for "ATCTCTAGGTAAAAGTTCAGTTAATCCCGAGGAT" ?
0.805

Could you tell me which PBM binding z-score is on file for "ATATTTAGGTTAAGGGTCATTCAGGTTGGTTCGC" ?
3

Could you tell me which PBM binding z-score is on file for "CTTACTGGGCCAAGGTCATTGATCAGTCAAAGCA" ?
2.31

Could you tell me which PBM binding z-score is on file for "AGAACGAGGGAAATGAGTTGATAGCACGGGTGGC" ?
-0.839

Could you tell me which PBM binding z-score is on file for "CCAGACAGGTGAAAGGTTACTCAGTCTGGTACGC" ?
0.13

====

tested on: RARa homodimer (NR concentration 270 nM); experiment: PBM binding z-score (relative to random genomic background probes); higher = stronger binding; sequences stand for … in GC…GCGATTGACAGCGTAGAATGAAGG
Record Criterion met whenever PBM binding z-score is at 0.4 or higher; record Criterion not met when lower.

// below: answered sequences
CAACCTAGGTCAAGGTCAAAGTCGGTTTGTGCCA: Criterion met
CCTAGCAGGCCAATCTGGGTCAGTCAAGGCTTGA: Criterion not met
GTACCAAGGTGAATAGGTCGGTGATGAGTAGGCG: Criterion met

PBM binding z-score >= 0.4 for "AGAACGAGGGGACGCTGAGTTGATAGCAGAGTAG" ?
Criterion not met

PBM binding z-score >= 0.4 for "CCTACTGGGCCAAAAAGGTCATTAATGCCGATAA" ?
Criterion met

PBM binding z-score >= 0.4 for "TCGAGTTGGTTAGGGGCATTCAGAATGGCGTCGA" ?
Criterion not met

====

test system: PPARg homodimer (NR concentration 180 nM); assay: PBM binding z-score (relative to random genomic background probes); higher = stronger binding; sequences stand for … in GC…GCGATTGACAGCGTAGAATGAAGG
Record Fulfilled whenever PBM binding z-score is at 3 or higher; record Not fulfilled when lower.

CGTCGAAGGTCATAGGAGGTCAGTGAAGACAGAT: Fulfilled
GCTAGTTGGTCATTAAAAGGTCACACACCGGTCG: Fulfilled
GTACCAAGGTGAATAAGTCGTTGATGAGTAGGCG: Not fulfilled
TCGAGTAGGTTAGTCGGGGCATCCAGCCAACATA: Not fulfilled

Could you now look at the following sequence, please?
PBM binding z-score >= 3 for "TAGCCTTGGTCATTCAGGGGCCAGTATAGAAAGC" ?
Not fulfilled

====

tested on: PXR:RXRa (NR concentration 270 nM, RXRa partner concentration 90 nM); test: PBM binding z-score (relative to random genomic background probes); higher = stronger binding; sequences stand for … in GC…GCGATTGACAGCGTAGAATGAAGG
Range-based classes on measured PBM binding z-score: low band = under 0.3, middle band = from 0.3 up to 2, high band = 2 and over

AGTCAAAGTTCAGGACGAGGAAACGTAAAGCACG: high band

Could you now look at the following sequence, please?
Into which category would you place "CGAACTAGGTCATTGACAGGGCAGTGAATAGTAA" ?
middle band

Reference source for all entries: the supplement of paper PMC6555819
